Data credit: paper PMC12040169

Protocol description: in vitro
Condition context: human, hela cells, % viability
viability at 28.5 h, 10 µM: recorded values
Lab book: enter the figure in %, no units written.

{"columns": ["Compound", "Value units", "viability at 28.5 h, 10 µM"],
 "data": [
  ["Cc1cc(C2CCCCCN2C(=O)c2cc(C3CC3)on2)on1 (centres unmarked) [CBK285414]", "%", 90.1],
  ["O=C(NCCCNc1ccc([N+](=O)[O-])cc1)c1cccs1 [CBK066825]", "%", 94.1],
  ["CN1CCN(C(=O)c2ccc(NS(=O)(=O)c3cc(Cl)sc3Cl)cc2)CC1 [CBK034549]", "%", 94],
  ["Cc1ccc(-n2nnc3c(SCC(=O)Nc4ccc(F)cc4)ncnc32)cc1 [CBK287542]", "%", 112],
  ["Cc1cc(C(=O)N2CCC(c3nn(C)c4ncccc34)CC2)cs1 [CBK284987]", "%", 104],
  ["COc1ccc(/C=C/c2nc3ccccc3s2)cc1S(=O)(=O)N1CCOCC1 [CBK269373]", "%", 89.9],
  ["CC(NC(=O)c1ccc(-c2ccccc2F)s1)C(=O)N1CCCCC1 (centres unmarked) [CBK305740]", "%", 91.3],
  ["Cc1cc(C)n(CC2CCCCN2C(=O)COc2cccnc2)n1 (centres unmarked) [CBK304040]", "%", 105]
]}

For the next question, use this compound.
Query: Record request: viability at 28.5 h, 10 µM value, item O=C1CC(c2ccccc2)n2nc(C(F)(F)F)nc2N1 (centres unmarked) [CBK288063]
Result: 114

----------
Protocol description: in vitro
Condition context: human, hela cells, % viability
Assay readout: viability at 28.5 h, 10 µM (%)
Expressed in %, but write only the number.

Query: Returns the measured viability at 28.5 h, 10 µM for the input molecule. Input: Cc1ccccc1NCC(=O)N/N=C\c1cc(Br)c(O)c(Br)c1 [CBK262120]
Result: 87.7

Query: Would you mind doing COC1CCC(C(=O)Nc2cnc(-c3ccc(F)c(Cl)c3)c(-c3ccc(C(C)=O)s3)n2)CC1 (stereo not drawn) [CBK036718] as well?
Result: 99.3

Query: Then this molecule: Cc1nc(NC(=O)C2Cc3ccccc3S2)sc1-c1n[nH]c(=S)n1C (stereo not drawn) [CBK295337]
Result: 98

Query: CC(C)C(=O)NCCn1nc(-c2ccco2)ccc1=O [CBK283863] , same question.
Result: 97

Query: Then this molecule: CC(C)(C)NC(=O)c1ccc(-n2ccnc2)c(-n2cccc2)c1 [CBK284811]
Result: 103

Query: Further, for Cc1cc(S(=O)(=O)Nc2cccc(C(=O)O)c2)c(C)c(S(=O)(=O)c2ccccc2)c1 [CBK263227] ?
Result: 88.3

----------
Protocol description: in vitro
Set-up: Viability of infected HeLa host cells, resazurin conversion, bulk resorufin fluorescence relative to DMSO
Condition context: human, hela cells; bulk resorufin, mean of 3
Measured viability at 28.5 h, 0.00125 µM, listed per entry for reference.

{"columns": ["Compound", "viability at 28.5 h, 0.00125 µM"],
 "data": [
  ["Cc1ccc2[nH]c3c(c2c1)CCOC31CCN(Cc2ccccc2-c2ccccc2)CC1 [c22e]", "89.4%"],
  ["COc1c(Br)cc2c(cc(C)n2-c2ccccc2)c1OCC(O)CNC(C)C (centres unmarked) [c5e]", "89.3%"],
  ["O=C(CSc1nnc(-c2cccnc2)o1)c1ccccc1 [c35e]", "96.5%"],
  ["O=C(Nc1ccc(F)c(F)c1)NC1CCC2CN(CCOc3ccccc3)CC2C1 (centres unmarked) [c9e]", "92.6%"]
]}

Lab note: next compound to report on.
Query: Which viability at 28.5 h, 0.00125 µM value belongs to CCCCc1ccc(Nc2csc(N)n2)cc1 [c11e] ?
Result: 95.9%
